Measured values drawn from patent US3945994A for this set.

Test system: Pseudomonas aeruginosa Wyeth A 1058
Format: cell-based
STATED_CONDITIONS: WYETHA1058, agar serial dilution, 24 hours at 37°C
Recorded MIC, one value per entry.
EXPERIMENTAL_ENDPOINT: MIC (µg/mL)

CC1(C)S[C@@H]2[C@H](NC(=O)[C@H](NC(=O)NS(=O)(=O)Nc3cccnc3)c3ccccc3)C(=O)N2[C@H]1C(=O)O [XI]; 50
CC(C)N(C(C)C)S(=O)(=O)NC(=O)N[C@@H](C(=O)N[C@@H]1C(=O)N2[C@@H]1SC(C)(C)[C@@H]2C(=O)O)c1ccccc1 [VIII]; 50
CC1(C)S[C@@H]2[C@H](NC(=O)[C@H](NC(=O)NS(=O)(=O)N3CCOCC3)c3ccccc3)C(=O)N2[C@H]1C(=O)O [XIV]; 100

###

Parameter MIC, tested on Klebsiella pneumoniae A 809, listed per item.
EXPERIMENTAL_ENDPOINT: MIC

CCOC(=O)CNS(=O)(=O)NC(=O)N[C@@H](C(=O)N[C@@H]1C(=O)N2[C@@H]1SC(C)(C)[C@@H]2C(=O)O)c1ccccc1; 100 µg/mL
CN1CCCC1=NS(=O)(=O)N[C@@H](C(=O)N[C@@H]1C(=O)N2[C@@H]1SC(C)(C)[C@@H]2C(=O)O)c1ccccc1; > 100 µg/mL
CC(C)N(C(C)C)S(=O)(=O)NC(=O)N[C@@H](C(=O)N[C@@H]1C(=O)N2[C@@H]1SC(C)(C)[C@@H]2C(=O)O)c1ccccc1; 25 µg/mL
Cc1noc(NS(=O)(=O)NC(=O)N[C@@H](C(=O)N[C@@H]2C(=O)N3[C@@H]2SC(C)(C)[C@@H]3C(=O)O)c2ccccc2)c1C; 100 µg/mL
CC1(C)S[C@@H]2[C@H](NC(=O)[C@H](NC(=O)NS(N)(=O)=O)c3ccccc3)C(=O)N2[C@H]1C(=O)O; > 100 µg/mL
CCOC(=O)NS(=O)(=O)N[C@@H](C(=O)N[C@@H]1C(=O)N2[C@@H]1SC(C)(C)[C@@H]2C(=O)O)c1ccccc1; > 100 µg/mL
CC(=NS(=O)(=O)N[C@@H](C(=O)N[C@@H]1C(=O)N2[C@@H]1SC(C)(C)[C@@H]2C(=O)O)c1ccccc1)N(C)C; 100 µg/mL
CC(=O)OCC1=C(C(=O)O)N2C(=O)[C@@H](NC(=O)[C@H](N)c3ccccc3)[C@H]2SC1 [cephaloglycin, reference compound]; 6 µg/mL
CCOS(=O)(=O)NC(=O)N[C@@H](C(=O)N[C@@H]1C(=O)N2[C@@H]1SC(C)(C)[C@@H]2C(=O)O)c1ccccc1; > 100 µg/mL
CCOC(=O)NNS(=O)(=O)NC(=O)N[C@@H](C(=O)N[C@@H]1C(=O)N2[C@@H]1SC(C)(C)[C@@H]2C(=O)O)c1ccccc1; 100 µg/mL
CC(=O)OCC1=C(C(=O)O)N2C(=O)[C@@H](NC(=O)CC#N)[C@H]2SC1 [cephacetril, reference compound]; 6 µg/mL
Cc1nnc(SCC2=C(C(=O)O)N3C(=O)[C@@H](NC(=O)Cn4cnnn4)[C@H]3SC2)s1 [cephazolin, reference compound]; 1.5 µg/mL

###

Listed compounds paired with reported MIC
Test system: Pseudomonas aeruginosa 2396
Assay type: cell-based
STATED_CONDITIONS: agar serial dilution, 24 hours at 37°C
EXPERIMENTAL_ENDPOINT: MIC (µg/mL)

CC1(C)S[C@@H]2[C@H](NC(=O)[C@H](NC(=O)NS(=O)(=O)O)c3ccccc3)C(=O)N2[C@H]1C(=O)O; 25
CCOC(=O)NNS(=O)(=O)NC(=O)N[C@@H](C(=O)N[C@@H]1C(=O)N2[C@@H]1SC(C)(C)[C@@H]2C(=O)O)c1ccccc1; 50
Cc1noc(NS(=O)(=O)NC(=O)N[C@@H](C(=O)N[C@@H]2C(=O)N3[C@@H]2SC(C)(C)[C@@H]3C(=O)O)c2ccccc2)c1C; 50
CC1(C)S[C@@H]2[C@H](NC(=O)[C@H](NC(=O)NS(=O)(=O)N3CCOCC3)c3ccccc3)C(=O)N2[C@H]1C(=O)O; 50
CC1(C)S[C@@H]2[C@H](NC(=O)[C@H](NC(=O)NS(=O)(=O)Nc3ccccc3)c3ccccc3)C(=O)N2[C@H]1C(=O)O; 25
CC1(C)S[C@@H]2[C@H](NC(=O)[C@H](NC(=O)NS(=O)(=O)NCc3ccccc3)c3ccccc3)C(=O)N2[C@H]1C(=O)O; 25
CC1(C)S[C@@H]2C(NC(=O)C(N)c3ccccc3)C(=O)N2[C@H]1C(=O)O (stereo partly drawn) [ampicillin, reference compound]; 50
CC(=NS(=O)(=O)N[C@@H](C(=O)N[C@@H]1C(=O)N2[C@@H]1SC(C)(C)[C@@H]2C(=O)O)c1ccccc1)N(C)C; 100
